experiment: Inhibition of Hepatitis C virus genotype 1b full-length NS3/NS4A protease assessed as equilibrium dissociation constant by surface plasmon resonance biosensor-based interaction kinetic analysis; parameters: species or system Hepatitis C virus subtype 1b
Where a SMILES comes first, the peptide text is derived from it. [ ]: non-standard residue; d: D form. dGla = N[C@H](CC(C(=O)O)C(=O)O)C(=O)O; Cha = N[C@@H](CC1CCCCC1)C(=O)O
test readout: log10 Kd (log10 of the value in nM)
Short version: log10 scale, Kd, nM.

COc1ccc2c(O[C@@H]3C[C@H]4C(=O)N[C@]5(C(=O)O)C[C@H]5/C=C\CCCCC[C@H](NC(=O)OC5CCCC5)C(=O)N4C3)cc(-c3csc(NC(C)C)n3)nc2c1: 1.85
CC(C)(C)OC(=O)N[C@H]1CCCCC/C=C\[C@@H]2C[C@@]2(C(=O)NS(=O)(=O)C2CC2)NC(=O)[C@@H]2C[C@@H](OC(=O)N3Cc4cccc(F)c4C3)CN2C1=O: 0.81
CCC[C@H](NC(=O)[C@@H]1[C@H]2CCC[C@H]2CN1C(=O)[C@@H](NC(=O)[C@@H](NC(=O)c1cnccn1)C1CCCCC1)C(C)(C)C)C(=O)C(=O)NC1CC1: 1.83
CC(C)(C)NC(=O)N[C@H](C(=O)N1C[C@H]2[C@@H]([C@H]1C(=O)NC(CC1CCC1)C(=O)C(N)=O)C2(C)C)C(C)(C)C (stereo not given in full): 3.89

Here's the next entry for you.
Request: Fill blank: measured log10 Kd of the molecule CC[C@H](C)[C@H](NC(=O)[C@H](CC(C)C)NC(=O)[C@@H](CC(C(=O)O)C(=O)O)NC(=O)[C@H](CC(=O)O)NC(C)=O)C(=O)N[C@@H](CC1CCCCC1)C(=O)N[C@@H](CS)C(=O)O (Ac-D[dGla]LI[Cha]C-OH) is ____.
Result: 3.76

* * *

assay: Inhibition of Hepatitis C virus genotype 1b full-length NS3 protease assessed as equilibrium dissociation constant by surface plasmon resonance biosensor-based interaction kinetic analysis; set-up: species or system Hepatitis C virus subtype 1b
pKd: −log10 of the molar value. Where a SMILES comes first, the peptide text is derived from it. [ ]: non-standard residue; d: D form. dGla = N[C@H](CC(C(=O)O)C(=O)O)C(=O)O; Cha = N[C@@H](CC1CCCCC1)C(=O)O
# label = 1.0 if pKd >= 8 else 0.0

Worked examples follow.
CC(C)(C)OC(=O)N[C@H]1CCCCC/C=C\[C@@H]2C[C@@]2(C(=O)NS(=O)(=O)C2CC2)NC(=O)[C@@H]2C[C@@H](OC(=O)N3Cc4cccc(F)c4C3)CN2C1=O: 1.0
COc1ccc2c(O[C@@H]3C[C@H]4C(=O)N[C@]5(C(=O)O)C[C@H]5/C=C\CCCCC[C@H](NC(=O)OC5CCCC5)C(=O)N4C3)cc(-c3csc(NC(C)C)n3)nc2c1: 0.0
CC(C)(C)NC(=O)N[C@H](C(=O)N1C[C@H]2[C@@H]([C@H]1C(=O)NC(CC1CCC1)C(=O)C(N)=O)C2(C)C)C(C)(C)C (stereo not given in full): 0.0

Proceed to the following item.
Request: Confirm if pKd reported for the compound CC[C@H](C)[C@H](NC(=O)[C@H](CC(C)C)NC(=O)[C@@H](CC(C(=O)O)C(=O)O)NC(=O)[C@H](CC(=O)O)NC(C)=O)C(=O)N[C@@H](CC1CCCCC1)C(=O)N[C@@H](CS)C(=O)O (Ac-D[dGla]LI[Cha]C-OH) is 8 or above.
Result: 0.0
